# Tested on: SR leukemia
# testDetails: NCI tumour cell line growth inhibition, 48 h
experimentalEndpoint: TGI (µM)
Answers are plain numbers, in µM.

compound	measuredOn	displayUnit	TGI
NC1(CCCCCCCCCCC(=O)O)CNCCNCCNCCNC1	SR leukemia	µM	67.2
CN1CCCNCCN(CCc2ccccn2)CCCN(C)CC1	SR leukemia	µM	57.3
O=C1C(C=NCCc2c[nH]c3ccccc23)C(C(F)(F)F)=NN1c1nc2ccccc2s1 (stereo unspecified)	SR leukemia	µM	93.9

For the 2 compounds below, give their TGI values.
1. CN=C1NC(=O)/C(=C/c2ccc3ncccc3c2)S1
2. CN(C)CCNc1nc2ccccc2c2[nH]c3ccccc3c12

Response line:
[16.7, 1.31]

----------
# System: RXF 393 renal
# testDetails: NCI tumour cell line growth inhibition, 48 h
Kindly supply the reported TGI values for the records listed here.
Numbers only, in µM.

                          chemicalstructure  displayunit  reading
0  O=[N+]([O-])C(=C(Sc1ccccc1)Sc1ccccc1)C(Cl)=C(Cl)Cl           µM     1.99
1  Brc1ccc2c3c1[C@@H]1O[C@@H]1c1cccc(c1-3)[C@@H]1O[C@H]21           µM     32.3

Parameter requested: TGI. Apply to each item below.
1. CC[n+]1ccc2c(c1)C(=O)c1nccc3c1c-2nc1ccccc13
2. CCCNC(=O)OCc1c(COC(=O)NCCC)c(-c2ccc(Cl)c(Cl)c2)n2c1CCC2
3. COc1cc2c(c(O)c1C)C(=O)C(Cl)=CC2=O
4. CCOc1ccc(N=C/C=C(\Cl)c2ccc3ccccc3c2)cc1

Response line:
3.68
9.35
13.1
34.1

----------
# Tested on: IGROV1 ovarian
# testDetails: NCI tumour cell line growth inhibition, 48 h
experimentalEndpoint: TGI

In [3]: df
Out[3]:
                                 molecule  experimentalendpoint   reading
0  N#CSCc1cccc(Nc2cc(=O)[nH]c(=O)[nH]2)c1                   TGI  > 100 µM

Give one value of TGI per listed molecule.
1. O=C(O)CNC(=O)c1ccc([As](=O)(O)O)cc1
2. O=C(/C=C/c1cccs1)c1ccc(Cl)cc1
3. O=C(OCc1ccccc1)OOC(=O)OCc1ccccc1
4. Cc1c(N2C(=O)/C(=C\c3ccccc3O)N=C2c2ccccc2)c(=O)n(-c2ccccc2)n1C
5. CCN1CCN(c2nc(NCCNc3ccnc4cc(Cl)ccc34)c3ccccc3n2)CC1
6. CN1CCCNCCN(CCc2ccccn2)CCCN(C)CC1
7. O=C1CC(c2ccc([N+](=O)[O-])cc2)C2(C(=O)NC(=S)NC2=O)C(c2ccc([N+](=O)[O-])cc2)C1 (stereo unspecified)
8. CCOC(=O)C1C(=O)CC(O)(c2ccccc2)C(C(=O)OCC)C1c1ccc(OC)cc1 (stereo unspecified)

Response line:
> 100 µM
> 100 µM
> 100 µM
> 100 µM
4.69 µM
> 100 µM
45.2 µM
> 100 µM

Working through the 2 molecules below one at a time, give TGI for each.
1. NCCCC(N)C(=O)O (stereo unspecified)
2. CN(C)c1ccc2c(c1)oc(=O)c1ccccc12

Response line:
> 100 µM
36.7 µM

----------
# Test system: EKVX NSCLC
# testDetails: NCI tumour cell line growth inhibition, 48 h
experimentalEndpoint: TGI (µM)
Answers are plain numbers, in µM.

// solved cases for TGI follow
>>> print(df.to_string())
                                   compound  reading
0  O=C1/C(=C/c2ccc(F)cc2)CNC/C1=C\c1ccc(F)cc1     4.64
1   O=C1c2ccccc2C(=O)c2c1ccc1[nH]c(CCl)nc21     10.7
2     CCn1c(=O)c2c3cc(O)ccc3oc2c2ccc(O)cc21     62.6

Could you report TGI for every entry in the following list?
1. OCc1c(-c2cccc3ccccc23)sc(-c2cccc3ccccc23)c1CO
2. N#Cc1c(O)c2c(c(O)c1C#N)C(=O)c1ccccc1C2=O
3. CCOC(=O)c1c(SCCN2CCCC2)n(-c2ccccc2)c(=S)n(-c2ccccc2)c1=O
4. O=[N+]([O-])c1ccc(NSc2ccccc2)cc1
5. Cc1cc(O)cc(O)c1N=Nc1ccc([N+](=O)[O-])cc1
6. CCCCCCCCCCCCOC1C(CNCC2OC3OC(C)(C)OC3C2NC(=O)Nc2ccc(C(=O)OCC)cc2)OC2OC(C)(C)OC21 (configuration not stated)
7. Cc1cccc(C[C@@]2(SCc3ccccc3)C(C)(C)[C@@H]3CC[C@@]2(C)C3)n1
8. O=[N+]([O-])C(=C(Sc1ccccc1)Sc1ccccc1)C(Cl)=C(Cl)Cl

Response line:
1. 25
2. 26.1
3. 27
4. 90.1
5. 90.8
6. 18.9
7. 40.2
8. 5.15

Respectfully, I request TGI for each entry included below.
1. Clc1cccc(NC=Nc2ccc(-c3nc4ccccc4s3)cc2)c1
2. Cc1nc(Cl)c(CBr)c(Cl)n1

Response line:
1. 29.9
2. 11.8

Prompt line: Endpoint output: TGI of Brc1ccc2c3c1[C@@H]1O[C@@H]1c1cccc(c1-3)[C@@H]1O[C@H]21 . Value?
Response line: 39.4
